Can you tell me TGI for the items I'm about to list?
# Test system: UACC-62 melanoma
# assay.protocol: NCI tumour cell line growth inhibition, 48 h
Your answer is read as µM, so omit the unit and give the number.

Q: # lookup: TGI of C=C1C(=O)O[C@H]2[C@H]1CC/C(COC(=O)CCCCC(=O)OC/C1=C/CC[C@@]3(C)O[C@H]3[C@H]3OC(=O)C(=C)[C@@H]3CC1)=C\CC[C@@]1(C)O[C@@H]21
Result: 4.04

Q: # lookup: TGI of C=CCc1cc(-c2cc(CC=C)c(O)c(CN(CCCl)CCCl)c2)cc(CN(CCCl)CCCl)c1O
Result: 28.9

Q: # lookup: TGI of CCN(CC)CCCC(C)Nc1cnc(C(=O)Nc2ccc(Cl)c3cccnc23)cn1 (centres undefined)
Result: 3.43

Q: # lookup: TGI of C[n+]1c(/C=C\c2ccc(Cl)cc2)ccc2ccccc21
Result: 52

Q: # lookup: TGI of Oc1ccc2cc(Br)ccc2c1-c1c(O)ccc2cc(Br)ccc12
Result: 8.5

Q: # lookup: TGI of O=[N+]([O-])C(Cl)C(Cl)C(Cl)=C(Cl)Cl (centres undefined)
Result: 32.9

Q: # lookup: TGI of COC1=C2CC(C)CC(OC)[C@@H](OC(=O)CCN)[C@H](C)/C=C(\C)C(OC(N)=O)C(OC)/C=C\C=C(/C)C(=O)NC(=CC1=O)C2=O (some centres undefined)
Result: 4.34

Q: # lookup: TGI of CC(C)CNC(=O)CCc1cccc2c1oc1c(CCN)cccc12
Result: 32

====

# Test system: U251 CNS
Write down the outcome that applies. Available outcomes: active, inactive

Q: Hi, do you know how COc1ccc2c(c1)c(-c1ccc(-c3cn(S(=O)(=O)c4ccccc4)c4ccc(OC)cc34)s1)cn2S(=O)(=O)c1ccccc1 came out in this test?
Result: inactive

Q: Hi, do you know how COc1ccc(-c2[nH]c3ccccc3c2C=C(C#N)C#N)cc1 came out in this test?
Result: inactive

Q: Hi, do you know how COc1ccccc1OCC(=O)Nc1sc2c(c1C(N)=O)CCC2 came out in this test?
Result: inactive

Q: Hi, do you know how CCC[CH2][Sn]1([CH2]CCC)[O]C(=O)c2cc(I)cc(I)c2[O]1 came out in this test?
Result: inactive

Q: Hi, do you know how O=S(=O)(O)O.[NH-]C1CCCCC1[NH-].[Pt+2] (stereo not drawn) came out in this test?
Result: inactive

Q: Hi, do you know how CC(=O)[CH-]C(=O)c1ccccc1.CC(=O)[CH-]C(=O)c1ccccc1.CC[O-].CC[O-].[Zr+4] came out in this test?
Result: inactive

Q: Hi, do you know how Oc1ccc(-c2nnc3sc(-c4ccc(F)c(Oc5ccccc5)c4)nn23)cc1 came out in this test?
Result: inactive

Q: Hi, do you know how CC[C@H](C)[C@H]1NC(=O)[C@@H](N[C@](C)(O)[C@@H](N)CC(C)C)[C@@H](C)OC(=O)[C@H](Cc2ccc(OC)cc2)N(C)C(=O)[C@@H]2CCCN2C(=O)[C@H](CC(C)C)NC(=O)[C@@H](C)C(=O)[C@H](C(C)C)OC(=O)C[C@@H]1O came out in this test?
Result: active

====

Can you tell me TGI for the items I'm about to list?
# Tested on: MCF7 breast
# assay.protocol: NCI tumour cell line growth inhibition, 48 h

Q: # lookup: TGI of COc1cc(-c2nc(Nc3nc4ccccc4[nH]3)nc(N)c2C#N)cc(OC)c1OC
Result: > 33.8 µM

Q: # lookup: TGI of O=c1cc(-c2ccccc2)[nH]c2cc(F)c(F)cc12
Result: > 71.9 µM

Q: # lookup: TGI of COC(=O)Nc1nc2ccc(Oc3ccc(NC(=O)Nc4cccc(C(=O)O)c4)cc3)cc2[nH]1
Result: 24.3 µM

Q: # lookup: TGI of Cc1ccccc1C1CC(=O)CC(c2ccccc2C)C12C(=O)NC(=O)NC2=O (stereo not drawn)
Result: > 100 µM

Q: # lookup: TGI of COc1cc(/C=C2\C[C@H]3[C@@H]4CC=C5C[C@@H](O)CC[C@]5(C)[C@H]4CC[C@]3(C)[C@H]2O)cc(OC)c1OC
Result: > 100 µM

Q: # lookup: TGI of CC(=O)N1N=C2/C(=C/c3ccccc3)CC(C)CC2C1c1ccccc1 (stereo not drawn)
Result: 22.6 µM

Q: # lookup: TGI of Nc1ccccc1CCCC(=O)O
Result: > 100 µM

Q: # lookup: TGI of C=C1C(=O)O[C@@H]2[C@H]1C[C@@H](O)[C@H](C)[C@@](O)(C(=O)/C=C/C)[C@H]2OC(=O)C(C)CC (stereo partly drawn)
Result: 24.9 µM

Q: # lookup: TGI of Cc1cc2c(cc1Cl)SC1=CC(=O)N(c3ccccc3)C1=NS2(=O)=O
Result: > 100 µM

Q: # lookup: TGI of CC1=C[C@H]2c3c(c(O)c(O)c4oc5c(C)cccc5c(=O)c34)[C@H](c3cc(O)c(O)c4oc5c(C)cccc5c(=O)c34)[C@H]2C(C)(C)C1
Result: 6.3 µM

Q: # lookup: TGI of CC(=O)O[C@H]1C(=O)[C@@]2(C)[C@H]([C@H](OC(=O)c3ccccc3)[C@]3(O)C[C@H](OC(=O)[C@H](OC(=O)OCCC(O)CO)[C@@H](NC(=O)c4ccccc4)c4ccccc4)C(C)=C1C3(C)C)[C@]1(OC(C)=O)CO[C@@H]1C[C@@H]2O (stereo partly drawn)
Result: 14.1 µM

Q: # lookup: TGI of O=C(CN1CCN(c2ncnc3ccccc23)CC1)Nc1ccc(Cl)cc1C(=O)c1ccccc1Cl
Result: 13.1 µM

Q: # lookup: TGI of O=C1C=CC2(O[C@H](c3ccccc3)[C@@H](c3ccccc3)O2)C(SC(=O)c2ccccc2)C1 (stereo partly drawn)
Result: 2.83 µM

Q: # lookup: TGI of Oc1ccc2cc(Br)ccc2c1-c1c(O)ccc2cc(Br)ccc12
Result: 6.76 µM

Q: # lookup: TGI of CCOc1c(Br)cc(C2C(C(=O)OC)=CN(C)C=C2C(=O)OC)cc1OC
Result: > 100 µM

Q: # lookup: TGI of CC(=O)Oc1ccc2c(c1)Oc1cc(C(C)=O)ccc1C21OC(=O)c2ccccc21 (stereo not drawn)
Result: > 100 µM

Q: # lookup: TGI of CCOc1ccc(N=NC2C(=O)N(C(=O)CC(=O)Nc3ccccc3OC)N=C2C)cc1 (stereo not drawn)
Result: > 100 µM

Q: # lookup: TGI of CC(=O)C1C(=O)C(=O)N(c2cccc(C)c2C)C1=O (stereo not drawn)
Result: > 100 µM

Q: # lookup: TGI of C[n+]1c(/C=C\c2ccc(Cl)cc2)ccc2ccccc21
Result: > 100 µM

Q: # lookup: TGI of O=C(/C=C(\O)c1ccc(Cl)cc1)C(=O)N=Nc1c(O)[nH]c2ccc(Br)cc12
Result: > 100 µM

Q: # lookup: TGI of CSC1=C(C(=O)Nc2ccc(Cl)cc2)C(N)=NC1=O
Result: > 100 µM

Q: # lookup: TGI of N#C/C(=C\c1ccc(-c2ccc(Cl)cc2)o1)C(=O)Nc1ncc(Cc2ccc(Cl)cc2)s1
Result: > 100 µM

Q: # lookup: TGI of O=C(Nc1ccccc1O)c1cccc(NC2=C(Cl)C(=O)N(Cc3ccccc3)C2=O)c1
Result: 14.8 µM

====

# System: SNB-19 CNS
# assay.protocol: NCI tumour cell line growth inhibition, 48 h
Can you tell me TGI for the items I'm about to list?

Q: # lookup: TGI of CC1=C[C@H]2c3c(c(O)c(O)c4oc5c(C)cccc5c(=O)c34)[C@H](c3cc(O)c(O)c4oc5c(C)cccc5c(=O)c34)[C@H]2C(C)(C)C1
Result: 11.2 µM

Q: # lookup: TGI of O=C1CCCCC/C1=C\c1ccc(F)cc1
Result: > 100 µM

Q: # lookup: TGI of C/C(=C\C(C)COCc1ccccc1)[C@H](COCc1ccccc1)OCc1ccccc1 (stereo not given in full)
Result: > 100 µM

Q: # lookup: TGI of CCCN(CCCCC(NC(C)=O)C(=O)NCc1ccccc1)C(=O)N(C)N=O (stereo not given)
Result: > 100 µM

Q: # lookup: TGI of Cc1ccc(NC(=O)C(=O)C2C(=O)N(c3ccccc3)N=C2N)cc1C (stereo not given)
Result: > 100 µM

Q: # lookup: TGI of Cc1nc(C)c(C(=O)NNC(=O)Cc2ccccc2)cc1C(=O)NNC(=O)Cc1ccccc1
Result: > 100 µM

Q: # lookup: TGI of COC(=O)CCC(=O)CC(=O)C1=NS(=O)(=O)c2nc(S(N)(=O)=O)c(Cl)cc2N1
Result: > 100 µM

Q: # lookup: TGI of CC1C(=O)OC2CC[N+]3(CC(=O)c4ccc(Br)cc4)CC=C(COC(=O)C(C)(O)C1(C)O)C23 (stereo not given)
Result: > 375 µM

Q: # lookup: TGI of O=S1(=O)OCCOS(=O)(=O)C1I
Result: > 100 µM

Q: # lookup: TGI of CSC1=C(C(=O)Nc2ccc(Cl)cc2)C(N)=NC1=O
Result: > 100 µM
